# TGT: Protein kinase C beta type (Homo sapiens) (UniProt P05771)
# Sequence (P05771 2-671 limits assumed): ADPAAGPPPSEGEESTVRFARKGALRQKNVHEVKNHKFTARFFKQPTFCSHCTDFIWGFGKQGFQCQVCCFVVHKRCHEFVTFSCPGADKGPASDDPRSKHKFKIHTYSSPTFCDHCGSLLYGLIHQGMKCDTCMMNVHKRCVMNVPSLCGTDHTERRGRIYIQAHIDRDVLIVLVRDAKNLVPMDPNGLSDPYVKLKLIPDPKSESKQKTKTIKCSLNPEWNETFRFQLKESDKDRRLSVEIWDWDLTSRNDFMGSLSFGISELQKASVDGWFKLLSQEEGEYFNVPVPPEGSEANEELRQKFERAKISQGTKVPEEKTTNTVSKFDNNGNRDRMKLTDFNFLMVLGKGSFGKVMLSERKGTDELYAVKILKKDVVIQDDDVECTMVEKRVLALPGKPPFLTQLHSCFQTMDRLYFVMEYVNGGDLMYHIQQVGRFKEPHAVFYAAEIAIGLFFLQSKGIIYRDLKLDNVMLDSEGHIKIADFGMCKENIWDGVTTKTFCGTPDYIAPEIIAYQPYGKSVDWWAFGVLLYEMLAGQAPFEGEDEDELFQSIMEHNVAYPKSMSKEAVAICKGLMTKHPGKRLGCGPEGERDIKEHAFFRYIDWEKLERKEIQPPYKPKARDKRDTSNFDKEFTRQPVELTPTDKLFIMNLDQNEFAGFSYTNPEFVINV
# ASSAY PROCEDURE: Inhibition of N-terminal GST-fused PKCbeta2 (1-673) expressed in baculovirus expression system at 30 uM after 1 hr by off-chip mobility shift assay relative to control
Here, each record is paired with measured inhibition data.
Give a bare numeral; the unit % is implied.

The cases that follow already have their inhibition on record.
{"INPUT SMILES": "CCCCCCCCCCCCCC[C@@H]1OC[C@@H](N)[C@@H]1O", "inhibition, %": 22.9}
{"INPUT SMILES": "CCCCCCCCCCCCCC[C@@H]1OC[C@H](N)[C@@H]1O", "inhibition, %": 27.9}
{"INPUT SMILES": "CCCCCCCCCCCCCC[C@H]1OC[C@@H](N)[C@@H]1O", "inhibition, %": 43.9}

Consider now this further compound.
Entry CCCCCCCCCCCCC/C=C/[C@@H](O)[C@H](CO)N(C)C — recorded inhibition = 44.3
